B1: SNAP91 (parent)
chain: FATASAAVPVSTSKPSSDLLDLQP

# Variants of: B1
# assay.text: protein stability index of a GFP-peptide fusion (GPS, HEK-293T) (PSI 1-6); higher = more stable;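 further: lentivirally expressed fusions sorted by FACS into six bins by GFP to DsRed ratio, PSI derived from sequencing read proportions per bin multiplied by bin number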
# study.conditions: c terminus: a fixed tail appended
For each of the variants below, state its protein stability index.
Simply state the number, no unit and no words.

Looking for the measured protein stability index of "D21C" , can you help?
2.91

Try "S16D" next.
4.24

Try "S11E" next.
4.2

Try "A6D" next.
4.22

Try "L22P" next.
4.4

Try "T3Y" next.
1.98

Try "A2G" next.
4.09

Try "F1V" next.
4.54

Try "Q23H" next.
3.35

Try "T12D" next.
4.04

Try "P24W" next.
2.35

Try "P9H" next.
3.46

Try "S11C" next.
3.15

Try "S5C" next.
3.02

Try "V10M" next.
3.55

Try "L19N" next.
4.32

Try "V10C" next.
3.18

Try "F1D" next.
5.71

Try "T12F" next.
3.07

Try "Q23D" next.
3.97

Try "P24V" next.
3.41

Try "V8T" next.
4.12

Try "A6H" next.
3.19

Try "P24E" next.
4.53

Try "T12I" next.
3.51

Try "T3M" next.
3.16

Try "F1L" next.
4.62

Try "A4E" next.
4.57

Try "T12H" next.
4.3

Try "D18E" next.
3.98

Try "S5P" next.
3.54

Try "S11Q" next.
3.24

Try "V8K" next.
4.13

Try "V8S" next.
3.87

Try "T3I" next.
2.81

Try "A4F" next.
2.06

Try "S13E" next.
3.67

Try "A6I" next.
2.41

Try "S5M" next.
2.83

Try "K14L" next.
3.64

Try "D18N" next.
3.14

Try "P24T" next.
3.88

Try "T12P" next.
2.1

Try "T12R" next.
3.13

Try "K14G" next.
3.97

Try "T12Y" next.
3.28

Try "S11N" next.
3.76

Try "L19H" next.
4.26

Try "S11M" next.
3.5

Try "P15C" next.
3.15

Try "S17D" next.
4.22

Try "S16H" next.
3.71

Try "S16A" next.
4.02

Try "A2F" next.
3.21

Try "A7R" next.
3.63

Try "A2C" next.
3.09

Try "L20T" next.
3.92

Try "Q23P" next.
4.13

Try "T12Q" next.
3.97

Try "A4Y" next.
3.73

Try "L20H" next.
3.9

Try "L20Q" next.
4.14

Try "S17T" next.
4.21

Try "K14A" next.
4.16

Try "D21W" next.
1.78

Try "P15Q" next.
3.44

Try "P24A" next.
3.94

Try "S16R" next.
3.3

Try "S16L" next.
2.83

Try "A2M" next.
3.79

Try "A7T" next.
3.24

Try "S17Q" next.
3.72

Try "S11L" next.
3.03

Try "A2W" next.
2.96

Try "P9A" next.
2.96

Try "L19F" next.
3.7

Try "S17M" next.
3.56

Try "S11Y" next.
2.17

Try "A7K" next.
3.54

Try "K14Y" next.
3.21

Try "P15S" next.
3.73

Try "Q23W" next.
2.69

Try "S17W" next.
3.31

Try "S5G" next.
3.54

Try "A6S" next.
3.78

Try "T3G" next.
2.65

Try "A7E" next.
4.4

Try "A4H" next.
4.06

Try "S17Y" next.
3.2

Try "D18H" next.
3.04

Try "V8P" next.
4.07
